Here, each record is paired with measured solubility kinetic data.
Details: buffer; pH 7.4; 200.0 µM

Worked set:
compound	measureName	result
O=C(CN1C(=O)NC2(CCOc3ccccc32)C1=O)N1CCCCC1 (centres undefined)	solubility kinetic	> 51.5 µg/mL
Cc1c([N+](=O)[O-])c(C(=O)NC2CCCC2)nn1C	solubility kinetic	> 37.8 µg/mL
C=CCNC(=O)C(=O)NCCCN1CCOCC1	solubility kinetic	> 38.3 µg/mL

// next entry
Query string: What does the record list as solubility kinetic for CSc1ccc(Cl)c(C(=O)NCCCn2ccnc2)c1 ?
Result string: > 46.5 µg/mL

====

Here, each record is paired with measured solubility kinetic data.
Details: buffer; pH 7.4; 200.0 µM

Worked set:
compound	solubility kinetic
O=C(O)C1CC=CCC1C(=O)NCCCCc1ccccc1 (stereo unspecified)	> 45.2 µg/mL
CCN(C(=O)Cc1c(C(=O)O)[nH]c2ccccc12)c1ccc(OC)cc1	> 52.9 µg/mL
Cc1ccc(S(=O)(=O)NC(=S)c2ccccc2)cc1	> 43.7 µg/mL

Query string: What does the record list as solubility kinetic for O=[N+]([O-])c1cccc(/C=N/n2cnnc2)c1 ?
Result string: > 32.6 µg/mL

Query string: What does the record list as solubility kinetic for CC(=O)c1c(C)n(-c2ccc(Cl)cc2)c2ccc(O)cc12 ?
Result string: < 0.6 µg/mL

Query string: What does the record list as solubility kinetic for CC(CC(=O)O)CC(=O)Nc1nncs1 (stereo unspecified) ?
Result string: > 34.4 µg/mL

Query string: What does the record list as solubility kinetic for CC(=O)Oc1ccc2occ(/C=N/c3cc(=O)[nH]c(=S)[nH]3)c(=O)c2c1 ?
Result string: > 53.6 µg/mL

Query string: What does the record list as solubility kinetic for Cc1ccc(NC(=O)CCSCCc2ccccn2)cc1 ?
Result string: > 45.1 µg/mL

Query string: What does the record list as solubility kinetic for Cc1nc2ccsc2c(=O)n1-c1cccc(Cl)c1 ?
Result string: > 41.5 µg/mL

Query string: What does the record list as solubility kinetic for CCOc1ccc(C(=O)NCC(=O)N2CCN(Cc3ccccc3)CC2)cc1 ?
Result string: > 57.2 µg/mL
